- Protocol summary: Tolerability and LD50 of intravenous echinomycin in mice
- Measurement parameters: mouse, in vivo
Test readout: LD50

I'd like to know its LD50. The compound in question is CSC1SC[C@H]2C(=O)N(C)[C@@H](C(C)C)C(=O)OC[C@@H](NC(=O)c3cnc4ccccc4n3)C(=O)N[C@@H](C)C(=O)N(C)[C@@H]1C(=O)N(C)[C@@H](C(C)C)C(=O)OC[C@@H](NC(=O)c1cnc3ccccc3n1)C(=O)N[C@@H](C)C(=O)N2C (stereo in doubt) [echinomycin] 0.629 mg/kg
